B1: SAT2 (parent)
chain: GYGIYYFIYSTWKGRTIYLEDIYV

Variants of: B1
Experiment: protein stability index of a GFP-peptide fusion (GPS, HEK-293T) (PSI 1-6); higher = more stable;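 also: lentivirally expressed fusions sorted by FACS into six bins by GFP to DsRed ratio, PSI derived from sequencing read proportions per bin multiplied by bin number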
Settings: c terminus: a fixed tail appended
Measured protein stability index values are reported for all entries that follow.

{"mutation-string": "T16E", "protein stability index": 2.53}
{"mutation-string": "L19S", "protein stability index": 3.57}
{"mutation-string": "L19Y", "protein stability index": 4}
{"mutation-string": "I4K", "protein stability index": 2.7}
{"mutation-string": "G3H", "protein stability index": 2.85}
{"mutation-string": "F7K", "protein stability index": 3.88}
{"mutation-string": "D21T", "protein stability index": 1.75}
{"mutation-string": "T11C", "protein stability index": 4.22}
{"mutation-string": "I8D", "protein stability index": 3.24}
{"mutation-string": "Y9G", "protein stability index": 2.77}
{"mutation-string": "Y9M", "protein stability index": 3.46}
{"mutation-string": "I4W", "protein stability index": 2.71}
{"mutation-string": "D21I", "protein stability index": 3.08}
{"mutation-string": "T11D", "protein stability index": 3.32}
{"mutation-string": "I8S", "protein stability index": 3.1}
{"mutation-string": "G14L", "protein stability index": 2.47}
{"mutation-string": "Y5G", "protein stability index": 3.41}
{"mutation-string": "G3R", "protein stability index": 2.96}
{"mutation-string": "I8V", "protein stability index": 2.02}
{"mutation-string": "D21H", "protein stability index": 2.67}
{"mutation-string": "W12K", "protein stability index": 2.65}
{"mutation-string": "Y2N", "protein stability index": 3.27}
{"mutation-string": "E20W", "protein stability index": 2.35}

Data provenance: the supplement of paper PMC10567573
